# assay.method.text: qHTS for Inhibitors of human tyrosyl-DNA phosphodiesterase 1 (TDP1): qHTS in cells in presence of CPT; further: nearly all actives have a fitted effect of over 55% in size
# test.parameters: chicken DT40 Tdp1-/-;hTDP1 cells + 20 nM CPT, ATP luminescence, 48 h; series mostly up to 46.2 µM
Out of some 420,000 compounds screened, about 50,000 (12%) were called active. Inconclusive results (about 26%) are left out. The call rests on the fitted dose curve; in most records, active means well fitted inhibition curve with a large enough effect; inconclusive means small, poorly fitted or top-dose-only effect; inactive means flat fitted curve, though single readings scatter. Only a selection was taken, and actives are over-represented in it overall.
Your answer must be one of the following: active, inactive

Please share the test call associated with O=C1COc2ccc(S(=O)(=O)NCCc3ccc(Cl)cc3)cc2N1 .
inactive

Please share the test call associated with CCCCn1nc(C(=O)N2CCc3ccccc32)c2ccccc2c1=O .
active

Please share the test call associated with O=C(OC1CC2CC1[C@H]1CCCCN1C2=O)N1CCOCC1 (stereo partly drawn) .
inactive

Please share the test call associated with COc1cc(SC#N)ccc1N=Cc1c(C)[nH]n(-c2ccc(C)cc2)c1=O .
active

Please share the test call associated with O=C(NCc1nnc(SCC(=O)N2CCCCCC2)o1)c1ccc(F)cc1 .
inactive

Please share the test call associated with Cc1ccc(N(C(=O)c2snc(C(N)=O)c2N)C(C(=O)NCC2CCCO2)c2c[nH]c3ccccc23)cc1 (stereo not drawn) .
active

Please share the test call associated with Cc1ccc(C(C(=O)NCC2CCCO2)N(C(=O)c2snc(C(N)=O)c2N)c2ccc(C(C)C)cc2)o1 (stereo not drawn) .
active

Please share the test call associated with CC(C)CN(C(=O)CN1CCN(S(=O)(=O)c2ccccc2)CC1)c1c(N)n(CC(C)C)c(=O)[nH]c1=O .
inactive

====

# assay.method.text: qHTS for Inhibitors of human tyrosyl-DNA phosphodiesterase 1 (TDP1): qHTS in cells in presence of CPT; further: nearly all actives have a fitted effect of over 55% in size; further: potency means the concentration at half of the fitted maximal effect
# test.parameters: chicken DT40 Tdp1-/-;hTDP1 cells + 20 nM CPT, ATP luminescence, 48 h; series mostly up to 46.2 µM
Hit rate of the full screen: of about 420,000 compounds, about 50,000 (12%) were called active. Inconclusive results (about 26%) are left out. This is one part of a sample in which actives are shown more often than they occur.
result.type: Potency

CCc1ccc(OC(C)C(=O)Nc2ccc(S(=O)(=O)Nc3cc(C)on3)cc2)cc1 (stereo unspecified)    inactive
Cc1ccc(S(=O)(=O)N2CCN(C(=O)COC(=O)CNC(=O)c3ccc(C(C)(C)C)cc3)CC2)c(C)c1    inactive
CO/N=C(\C(=O)N[C@@H]1C(=O)N2C(C(=O)O)=CCS[C@H]12)c1csc(N)n1    inactive
Cc1ccc(S(=O)(=O)N2CCN(C(=O)Cc3sc(C)nc3-c3ccc(F)cc3)CC2)c(C)c1    18.4 µM (active)
Cc1ncn(C23CC4CC(CC(O)(C4)C2)C3)n1    inactive
CC1CCN(C(=O)c2ccccc2NC(=O)Cc2ccccc2)CC1    inactive
CCOC(=O)c1c(CN(C)C)n(-c2ccccc2)c2cc(Br)c(O)cc12    inactive
Cc1ccc(NC(=O)CN2C(=O)NC(C)(c3ccc(Cl)cc3)C2=O)c(Br)c1 (stereo unspecified)    inactive

Lab note: measured Potency of O=C(COc1ccccc1)N1CCN=C1SCc1cccc(F)c1 was inactive

Lab note: measured Potency of Cc1ccc(S(=O)(=O)N2CCN(C(=O)CN3C(=O)NC(C)(c4ccc(Cl)cc4)C3=O)CC2)c(C)c1 (stereo unspecified) was 23.1 µM (active)

Lab note: measured Potency of O=C1c2ccccc2C(c2nc3ccccc3[nH]2)N1c1ccccc1 (stereo unspecified) was inactive

Lab note: measured Potency of CCOc1ccc(N(CC)C(=O)C2CCN(S(=O)(=O)c3cccc4nonc34)CC2)cc1 was inactive

Lab note: measured Potency of COc1ccccc1CCC(=O)OCC(=O)N1CCN(S(=O)(=O)c2ccc(C)cc2C)CC1 was 25.9 µM (active)

Lab note: measured Potency of COC(=O)c1sccc1NS(=O)(=O)c1ccc(F)cc1F was inactive

Lab note: measured Potency of CCCc1cc(=O)[nH]c(SCC(=O)N2CCN(S(=O)(=O)c3ccc(C)cc3C)CC2)n1 was inactive

Lab note: measured Potency of Cc1nc(-c2ccc(F)cc2)c(CC(=O)Nc2cccc(S(=O)(=O)N3CCOCC3)c2)s1 was inactive

====

# assay.method.text: qHTS for Inhibitors of human tyrosyl-DNA phosphodiesterase 1 (TDP1): qHTS in cells in presence of CPT; further: nearly all actives have a fitted effect of over 55% in size
# test.parameters: chicken DT40 Tdp1-/-;hTDP1 cells + 20 nM CPT, ATP luminescence, 48 h; series mostly up to 46.2 µM
Out of some 420,000 compounds screened, about 50,000 (12%) were called active. Not shown: some 26% with an inconclusive outcome. The call rests on the fitted dose curve; in most records, active means well fitted inhibition curve with a large enough effect; inconclusive means small, poorly fitted or top-dose-only effect; inactive means flat fitted curve, though single readings scatter. The full list was thinned out, with actives kept by preference.
Your answer must be one of the following: Y for active, N for inactive

Please share the test call associated with CCOc1ccc(NCCC(=O)c2ccc3c(c2)OCO3)cc1 .
Y

Please share the test call associated with O=C(O)C(CCc1ccccn1)c1ccccc1 (centres undefined) .
N

Please share the test call associated with C/C(=N\NC(=O)C(N)=O)c1ccc2c(c1)OCCO2 .
N

Please share the test call associated with CC(=O)Oc1ccc(C(C)=O)c2c1OCCO2 .
N

====

# assay.method.text: qHTS for Inhibitors of human tyrosyl-DNA phosphodiesterase 1 (TDP1): qHTS in cells in presence of CPT; further: nearly all actives have a fitted effect of over 55% in size
# test.parameters: chicken DT40 Tdp1-/-;hTDP1 cells + 20 nM CPT, ATP luminescence, 48 h; series mostly up to 46.2 µM
Screen size: about 420,000 compounds; about 50,000 (12%) were called active. Another 26% or so got no clear call; they are omitted. Calls follow the shape of the dose curve; as a rule, active = well fitted inhibition curve with a large enough effect; inconclusive = small, poorly fitted or top-dose-only effect; inactive = flat fitted curve, though single readings scatter. This is one part of a sample in which actives are shown more often than they occur.
Your answer must be one of the following: active, inactive

Please share the test call associated with CC(NC(=O)c1ccc(S(=O)(=O)Nc2ccccc2)cc1)c1ccc(S(N)(=O)=O)cc1 (stereo not given) .
inactive

Please share the test call associated with COc1ccc(CCNC(=O)c2ccc3c(c2)sc2nc(-c4ccc(C)cc4)cn23)cc1OC .
active

Please share the test call associated with CCOC(=O)C1CCCN(C(=O)c2ccc(CS(=O)(=O)c3ccc(Br)cc3)o2)C1 (stereo not given) .
inactive

Please share the test call associated with Cc1ccc(S(=O)(=O)N(C)C2(C)CCS(=O)(=O)C2)cc1 (stereo not given) .
inactive

Please share the test call associated with O=C(Nc1nnc(-c2ccc(Cl)cc2)o1)c1ccccc1Br .
active

Please share the test call associated with O=C(COC(=O)c1ccccc1Br)Nc1nnc(-c2ccccc2)o1 .
inactive

Please share the test call associated with CCOC(=O)C1CCCN(C(=O)c2ccc3c(c2)sc2nc(-c4ccc(CC)cc4)cn23)C1 (stereo not given) .
active

Please share the test call associated with COC(=O)c1sc2ncccc2c1OCc1ccc(Cl)cc1Cl .
inactive

Please share the test call associated with Cc1ccc(NS(=O)(=O)c2ccc(C(=O)NCCCN3CCOCC3)cc2)cc1 .
inactive

Please share the test call associated with Cc1ccc2c(CC(=O)NCc3cccs3)coc2c1 .
inactive

Please share the test call associated with Cc1ccc(-c2cn3c(n2)sc2cc(C(=O)NCc4cccs4)ccc23)c(C)c1 .
active

Please share the test call associated with O=C1CCCCC1C(=O)c1ccccc1 (stereo not given) .
inactive

Please share the test call associated with CCOc1cccc2cc(-c3cn4c(n3)sc3cc(C)ccc34)c(=O)oc12 .
inactive

Please share the test call associated with CC(Sc1nncn1C)C(=O)NCCC1=CCCCC1 (stereo not given) .
inactive

Please share the test call associated with CC(C)CNC(=S)NNC(=O)c1nn(C)cc1Cl .
inactive

====

# assay.method.text: qHTS for Inhibitors of human tyrosyl-DNA phosphodiesterase 1 (TDP1): qHTS in cells in presence of CPT; further: nearly all actives have a fitted effect of over 55% in size; further: potency means the concentration at half of the fitted maximal effect
# test.parameters: chicken DT40 Tdp1-/-;hTDP1 cells + 20 nM CPT, ATP luminescence, 48 h; series mostly up to 46.2 µM
The campaign covered roughly 420,000 compounds. About 50,000 (12%) were called active. Another 26% or so got no clear call; they are omitted. Shown is part of a subset that was picked to be rich in actives.
result.type: Potency

O=C(COC(=O)c1cc(=O)[nH]c2ccccc12)NCc1cccc(Cl)c1    inactive
COc1ccc(C(=O)NN(C)c2nc(-c3ccccc3)cc(C)c2S(C)(=O)=O)cc1    16.4 µM (active)
O=C(Cn1cc(C(F)(F)F)ccc1=O)Nc1ccc2c(c1)OCCO2    inactive
Cn1nnc2cc(C(=O)NCCC3=CCCCC3)ccc21    inactive
CNC(=S)N/N=C/c1ccc(N2CCOCC2)s1    4.61 µM (active)
COc1ccc(CNC(=O)c2ccc(NS(=O)(=O)c3ccc4[nH]c(=O)[nH]c4c3)cc2)cc1OC    inactive
Cc1cccc(CNS(=O)(=O)c2ccc(-c3cnc(C4CC4)o3)cc2)c1    16.4 µM (active)
CC1(C)C2CCC1(CS(=O)(=O)NCCc1c[nH]c3ccccc13)C(=O)C2 (configuration not stated)    inactive

Lab note: measured Potency of Cc1ccc(C(=O)NCC(=O)O)cc1S(=O)(=O)N1CCCCC1 was inactive

Lab note: measured Potency of CCOC(=O)c1ccc2c(c1)nc(C)n2CC was inactive

Lab note: measured Potency of O=C(CC(NCc1cccnc1)C(=O)O)Nc1ccc(O)cc1 (configuration not stated) was inactive

Lab note: measured Potency of CCOc1cc(S(=O)(=O)NCc2ccc3c(c2)OCO3)ccc1F was inactive

Lab note: measured Potency of CCCOc1ccc(C2NC(=O)NC(c3ccccc3)=C2C(C)=O)cc1OCC (configuration not stated) was 23.1 µM (active)

Lab note: measured Potency of CCn1c(/C=C/Nc2ccccc2)[n+](CC)c2ccc(C(=O)OCC(F)(F)F)cc21 was 25.9 µM (active)
